- Tested on: Lactobacillus gasseri
- EXPERIMENTAL_DETAILS: growth AUC relative to DMSO control (median of replicates) (fraction); higher = more growth (less inhibition), active = hit call of the paper
- CONDITIONS_USED: 20 µM; 24 h
Assign satisfied to entries whose growth AUC meets or exceeds 0.9; assign not satisfied to the rest.

# example entries with known answers
{"COMPOUND": "C/C(=N\\NC(=O)Nc1cc(F)cc(F)c1)c1ncccc1C(=O)[O-].[Na+]", "ASSIGNED_LABEL": "not satisfied"}
{"COMPOUND": "CON(C)C(=O)Nc1ccc(Cl)c(Cl)c1", "ASSIGNED_LABEL": "satisfied"}

Task item: Textbook exercise: given the entry BrCCBr , state whether its growth AUC is greater than or equal to 0.9.
Reply: satisfied

Task item: Textbook exercise: given the entry COP(=S)(OC)Oc1ccc(C#N)cc1 , state whether its growth AUC is greater than or equal to 0.9.
Reply: satisfied

Task item: Textbook exercise: given the entry CNC(=O)CSP(=O)(OC)OC , state whether its growth AUC is greater than or equal to 0.9.
Reply: satisfied

Task item: Textbook exercise: given the entry CCN(CC)C(=O)C(C)Oc1cccc2ccccc12 (centres undefined) , state whether its growth AUC is greater than or equal to 0.9.
Reply: satisfied

Task item: Textbook exercise: given the entry CC(C1CC1)C(O)(Cn1cncn1)c1ccc(Cl)cc1 (mixture of isomers) , state whether its growth AUC is greater than or equal to 0.9.
Reply: satisfied

Task item: Textbook exercise: given the entry COCCOC(=O)C(C#N)(C(=O)c1ccccc1C(F)(F)F)c1ccc(C(C)(C)C)cc1 (centres undefined) , state whether its growth AUC is greater than or equal to 0.9.
Reply: not satisfied

Task item: Textbook exercise: given the entry CNC(=O)O/N=C(\C)SC , state whether its growth AUC is greater than or equal to 0.9.
Reply: satisfied

Task item: Textbook exercise: given the entry CN(C)C(CSS(=O)(=O)[O-])CSS(=O)(=O)[O-].[Na+].[Na+] , state whether its growth AUC is greater than or equal to 0.9.
Reply: satisfied

Task item: Textbook exercise: given the entry CNC(=O)O/N=C/C(C)(C)S(C)=O (centres undefined) , state whether its growth AUC is greater than or equal to 0.9.
Reply: satisfied

Task item: Textbook exercise: given the entry N#Cc1c(O)c(Cl)c(Cl)c(C#N)c1Cl , state whether its growth AUC is greater than or equal to 0.9.
Reply: satisfied

Task item: Textbook exercise: given the entry CC(C)C(C(=O)OC(C#N)c1cccc(Oc2ccccc2)c1)c1ccc(OC(F)F)cc1 (centres undefined) , state whether its growth AUC is greater than or equal to 0.9.
Reply: satisfied

Task item: Textbook exercise: given the entry O=C(O)CCCOc1ccc(Cl)cc1Cl , state whether its growth AUC is greater than or equal to 0.9.
Reply: satisfied

---

Known growth AUC of a selection of molecules
- Test system: Bacteroides clarus
- EXPERIMENTAL_DETAILS: growth AUC relative to DMSO control (median of replicates) (fraction); higher = more growth (less inhibition), active = hit call of the paper
- CONDITIONS_USED: 20 µM; 24 h

Some molecules with known growth AUC results, for comparison:
{"MOLECULE": "COP(=O)(OC)OC1=C(Cl)C2C=CCC12 (stereo unspecified)", "EXPERIMENTAL_SYSTEM": "Bacteroides clarus", "RECORDED_RESULT": "0.995 (inactive)"}
{"MOLECULE": "CCCCC(O)(Cn1cncn1)c1ccc(Cl)cc1Cl (stereo unspecified)", "EXPERIMENTAL_SYSTEM": "Bacteroides clarus", "RECORDED_RESULT": "0.96 (inactive)"}
{"MOLECULE": "O=c1oc2ccccc2c(O)c1C1CC(c2ccc(-c3ccc(Br)cc3)cc2)Cc2ccccc21 (stereo unspecified)", "EXPERIMENTAL_SYSTEM": "Bacteroides clarus", "RECORDED_RESULT": "0.335 (active)"}

Task item: Endpoint output: growth AUC of Clc1ccc(C2(Cn3cncn3)OCCO2)c(Cl)c1 . Value?
Reply: 0.984 (inactive)

Task item: Endpoint output: growth AUC of CS/C(C)=N/OC(=O)N(C)SN(C)C(=O)O/N=C(\C)SC . Value?
Reply: 0.943 (inactive)

Task item: Endpoint output: growth AUC of CCCCN(CC)C(=O)SCCC . Value?
Reply: 1.01 (inactive)

Task item: Endpoint output: growth AUC of COc1ncc(F)c2nc(S(=O)(=O)Nc3c(F)cccc3F)nn12 . Value?
Reply: 0.985 (inactive)

Task item: Endpoint output: growth AUC of Cc1cccc(C)c1N(Cn1cccn1)C(=O)CCl . Value?
Reply: 0.997 (inactive)

Task item: Endpoint output: growth AUC of CCOP(=S)(Oc1ccc([N+](=O)[O-])cc1)c1ccccc1 (stereo unspecified) . Value?
Reply: 1.02 (inactive)

Task item: Endpoint output: growth AUC of CCCCc1c(C)nc(NCC)nc1OS(=O)(=O)N(C)C . Value?
Reply: 0.967 (inactive)

Task item: Endpoint output: growth AUC of CCC(C)(C)c1ccc(O)cc1 . Value?
Reply: 0.981 (inactive)

---

Known growth AUC of a selection of compounds
- Tested on: Clostridium difficile
- EXPERIMENTAL_DETAILS: growth AUC relative to DMSO control (median of replicates) (fraction); higher = more growth (less inhibition), active = hit call of the paper
- CONDITIONS_USED: 20 µM; 24 h
Reply: number alone, nothing else.

{"COMPOUND": "OCC1C(CO)C2(Cl)C(Cl)=C(Cl)C1(Cl)C2(Cl)Cl (centres undefined)", "ENDPOINT_LABEL": "growth AUC", "RECORDED_RESULT": 0.901}
{"COMPOUND": "C/C(=N\\NC(=O)Nc1cc(F)cc(F)c1)c1ncccc1C(=O)[O-].[Na+]", "ENDPOINT_LABEL": "growth AUC", "RECORDED_RESULT": 1}
{"COMPOUND": "CNC(=O)Oc1ccccc1C(C)C", "ENDPOINT_LABEL": "growth AUC", "RECORDED_RESULT": 1.02}

Task item: Endpoint output: growth AUC of Cc1ccc(-c2c(Cl)nc(C#N)n2S(=O)(=O)N(C)C)cc1 . Value?
Reply: 0.96

Task item: Endpoint output: growth AUC of CCS(=O)(=O)Cc1ccccc1OC(=O)NC . Value?
Reply: 0.977

Task item: Endpoint output: growth AUC of O=C(NC(=O)c1c(F)cccc1F)Nc1ccc(CO/N=C(\c2ccc(Cl)cc2)C2CC2)cc1 . Value?
Reply: 0.983

Task item: Endpoint output: growth AUC of CCOC(=O)c1cn2nc(OP(=S)(OCC)OCC)cc2nc1C . Value?
Reply: 0.988

---

- System: Roseburia intestinalis
- EXPERIMENTAL_DETAILS: growth AUC relative to DMSO control (median of replicates) (fraction); higher = more growth (less inhibition), active = hit call of the paper;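 active = AUC reduced over 20% with Padj below 0.05 in at least 2 of 3 replicates; inactive = otherwise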
- CONDITIONS_USED: 20 µM; 24 h
Result category, one only: active, inactive

# example entries with known answers
{"COMPOUND": "ClC1=C(Cl)C2(Cl)C(CBr)CC1(Cl)C2(Cl)Cl (stereo unspecified)", "ASSIGNED_LABEL": "inactive"}
{"COMPOUND": "Cc1ccc(-c2c(Cl)nc(C#N)n2S(=O)(=O)N(C)C)cc1", "ASSIGNED_LABEL": "inactive"}
{"COMPOUND": "O=[N+]([O-])c1cc(Cl)ccc1Cl", "ASSIGNED_LABEL": "inactive"}

Task item: Short answer needed: outcome of this test for CC(C)(C)c1ccc(CSc2cnn(C(C)(C)C)c(=O)c2Cl)cc1 ?
Reply: inactive

Task item: Short answer needed: outcome of this test for O=C(Cc1ccccc1)N/C(=N\OCC1CC1)c1c(C(F)(F)F)ccc(F)c1F ?
Reply: inactive

Task item: Short answer needed: outcome of this test for CC(C)OC(=O)Nc1cccc(Cl)c1 ?
Reply: inactive

Task item: Short answer needed: outcome of this test for CC(C)=CC1C(C(=O)OC(C#N)c2cccc(Oc3ccccc3)c2)C1(C)C (mixture of isomers) ?
Reply: inactive

Task item: Short answer needed: outcome of this test for COC(=O)COc1ccc(Cl)cc1Cl ?
Reply: inactive

Task item: Short answer needed: outcome of this test for C#CCOc1ccc(CCNC(=O)C(OCC#C)c2ccc(Cl)cc2)cc1OC (stereo unspecified) ?
Reply: inactive

---

- Test system: Parabacteroides distasonis
- EXPERIMENTAL_DETAILS: growth AUC relative to DMSO control (median of replicates) (fraction); higher = more growth (less inhibition), active = hit call of the paper;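 active = AUC reduced over 20% with Padj below 0.05 in at least 2 of 3 replicates; inactive = otherwise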
- CONDITIONS_USED: 20 µM; 24 h
Result category, one only: active, inactive

# example entries with known answers
{"COMPOUND": "CN(C)C(=O)C(c1ccccc1)c1ccccc1", "EXPERIMENTAL_SYSTEM": "Parabacteroides distasonis", "ASSIGNED_LABEL": "inactive"}
{"COMPOUND": "COc1cc(OC)nc(NC(=O)NS(=O)(=O)c2ncccc2C(=O)N(C)C)n1", "EXPERIMENTAL_SYSTEM": "Parabacteroides distasonis", "ASSIGNED_LABEL": "inactive"}
{"COMPOUND": "Cc1cc(Cl)ccc1OC(C)C(=O)O (stereo not given)", "EXPERIMENTAL_SYSTEM": "Parabacteroides distasonis", "ASSIGNED_LABEL": "inactive"}

Let us examine a further case.
Task item: Short answer needed: outcome of this test for Clc1ccc(Cl)c(Cl)c1 ?
Reply: inactive
